CAv3.2 IC50 Ratio closed/inact. values for the molecules below.
Target: T-type calcium channel (Homo sapiens, UniProt O95180)
Sequence (O95180 whole entry): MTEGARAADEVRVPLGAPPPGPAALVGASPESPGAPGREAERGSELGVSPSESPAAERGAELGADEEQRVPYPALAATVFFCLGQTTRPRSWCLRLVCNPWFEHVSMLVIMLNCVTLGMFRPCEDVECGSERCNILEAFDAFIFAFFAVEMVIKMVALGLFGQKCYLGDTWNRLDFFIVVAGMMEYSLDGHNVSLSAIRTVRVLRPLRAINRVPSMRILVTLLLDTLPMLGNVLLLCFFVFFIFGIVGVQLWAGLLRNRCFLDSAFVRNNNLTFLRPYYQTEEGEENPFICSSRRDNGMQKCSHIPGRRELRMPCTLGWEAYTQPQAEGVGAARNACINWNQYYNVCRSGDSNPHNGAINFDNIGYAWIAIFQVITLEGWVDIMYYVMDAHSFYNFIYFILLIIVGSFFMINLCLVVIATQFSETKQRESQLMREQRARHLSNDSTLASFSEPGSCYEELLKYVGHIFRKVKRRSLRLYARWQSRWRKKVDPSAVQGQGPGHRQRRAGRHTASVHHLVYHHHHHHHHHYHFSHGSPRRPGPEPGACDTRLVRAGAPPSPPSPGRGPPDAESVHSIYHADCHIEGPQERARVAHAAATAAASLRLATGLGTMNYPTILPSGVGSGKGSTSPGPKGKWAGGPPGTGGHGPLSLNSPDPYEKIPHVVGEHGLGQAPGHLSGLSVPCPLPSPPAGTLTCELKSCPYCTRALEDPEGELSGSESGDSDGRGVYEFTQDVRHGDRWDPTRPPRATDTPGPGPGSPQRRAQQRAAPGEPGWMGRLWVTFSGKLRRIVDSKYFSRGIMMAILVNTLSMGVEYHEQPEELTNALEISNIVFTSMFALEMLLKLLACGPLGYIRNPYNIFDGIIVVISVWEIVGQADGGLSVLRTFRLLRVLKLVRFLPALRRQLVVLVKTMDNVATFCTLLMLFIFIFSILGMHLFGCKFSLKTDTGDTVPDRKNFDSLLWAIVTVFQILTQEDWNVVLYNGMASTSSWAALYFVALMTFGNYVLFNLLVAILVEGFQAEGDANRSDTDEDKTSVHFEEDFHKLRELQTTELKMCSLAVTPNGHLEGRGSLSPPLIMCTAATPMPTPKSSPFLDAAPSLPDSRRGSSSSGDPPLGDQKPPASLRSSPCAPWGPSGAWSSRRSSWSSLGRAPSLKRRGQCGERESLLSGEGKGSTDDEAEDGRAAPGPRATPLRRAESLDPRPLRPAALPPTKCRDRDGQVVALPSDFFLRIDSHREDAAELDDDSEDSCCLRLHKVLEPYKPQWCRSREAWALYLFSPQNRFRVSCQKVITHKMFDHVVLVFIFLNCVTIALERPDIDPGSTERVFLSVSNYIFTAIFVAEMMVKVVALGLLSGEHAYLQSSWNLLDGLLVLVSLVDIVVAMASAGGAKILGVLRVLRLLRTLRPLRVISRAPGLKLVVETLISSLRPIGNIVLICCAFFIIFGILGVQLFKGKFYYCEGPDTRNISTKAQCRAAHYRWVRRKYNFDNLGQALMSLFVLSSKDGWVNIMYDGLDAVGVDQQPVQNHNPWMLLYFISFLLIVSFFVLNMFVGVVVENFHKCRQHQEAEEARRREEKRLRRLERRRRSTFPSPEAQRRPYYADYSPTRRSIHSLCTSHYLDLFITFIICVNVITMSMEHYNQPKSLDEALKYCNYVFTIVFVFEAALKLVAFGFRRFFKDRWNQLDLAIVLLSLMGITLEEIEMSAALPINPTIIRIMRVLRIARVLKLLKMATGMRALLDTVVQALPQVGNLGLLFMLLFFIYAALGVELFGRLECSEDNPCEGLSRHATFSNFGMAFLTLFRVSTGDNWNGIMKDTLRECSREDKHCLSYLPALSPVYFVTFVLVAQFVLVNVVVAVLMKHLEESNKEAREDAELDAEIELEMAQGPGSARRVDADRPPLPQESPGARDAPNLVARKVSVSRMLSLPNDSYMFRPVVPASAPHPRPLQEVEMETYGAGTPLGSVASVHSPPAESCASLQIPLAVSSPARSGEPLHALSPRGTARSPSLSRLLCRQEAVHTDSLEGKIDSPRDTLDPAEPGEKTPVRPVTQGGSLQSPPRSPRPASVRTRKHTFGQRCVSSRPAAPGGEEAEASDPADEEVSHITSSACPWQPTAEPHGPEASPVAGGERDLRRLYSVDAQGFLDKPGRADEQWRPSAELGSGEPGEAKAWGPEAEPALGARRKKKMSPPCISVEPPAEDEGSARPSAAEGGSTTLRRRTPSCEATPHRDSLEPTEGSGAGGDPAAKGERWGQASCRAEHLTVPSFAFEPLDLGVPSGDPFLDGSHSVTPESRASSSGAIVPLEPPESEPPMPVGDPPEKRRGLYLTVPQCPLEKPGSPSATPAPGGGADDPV
Test: T-type channel blocking, FLIPR data (Table 6)
Format: cell-based
Details: CAv3.2, ratio closed/inactivated IC50
measurement type: CAv3.2 IC50 Ratio closed/inact.

>>> numeric_result("CC(C)(C[C@H]1C[C@@H](NC(=O)c2ccc(Cl)cn2)C1)S(=O)(=O)c1cccc(C(F)(F)F)c1")
3.3
>>> numeric_result("O=C(NC[C@H]1C[C@H](S(=O)(=O)c2cccc(OC(F)(F)F)c2)C1)c1ccc(Cl)cn1")
2.9
>>> numeric_result("CC(C)(C[C@H]1C[C@@H](NC(=O)c2ccc(Cl)cc2S(C)(=O)=O)C1)S(=O)(=O)c1cccc(C(F)(F)F)c1")
1
>>> numeric_result("CC(C)([C@H]1C[C@H](NC(=O)c2ccc(F)c(Cl)c2)C1)S(=O)(=O)c1cc(F)cc(C(F)(F)F)c1")
2.6
>>> numeric_result("CC(C)([C@H]1C[C@H](NS(=O)(=O)c2ccc(F)c(Cl)c2)C1)S(=O)(=O)c1cc(F)cc(C(F)(F)F)c1")
2.4
>>> numeric_result("CC(C)([C@H]1C[C@H](NC(=O)c2ccc(C(F)(F)F)nc2)C1)S(=O)(=O)c1cccc(C(F)(F)F)c1")
1.2
>>> numeric_result("CC(C)([C@H]1C[C@@H](NC(=O)c2ccc(OCC(F)(F)F)nc2)C1)S(=O)(=O)c1cccc(C(F)(F)F)c1")
3.3
>>> numeric_result("CC(C)([C@H]1C[C@H](NC(=O)c2ccc(OCC(F)(F)F)nc2)C1)S(=O)(=O)c1cccc(C(F)(F)F)c1")
1.1
>>> numeric_result("CC(C)(C1CC(CNC(=O)c2ccnc(C(F)(F)F)n2)C1)S(=O)(=O)c1cccc(C(F)(F)F)c1 (stereo not drawn)")
1.4

---

Biological target: human α1H T-type channels (Homo sapiens, UniProt O95180)
Sequence (O95180 whole entry): as above
Test: T-type calcium channel block, whole cell patch clamp, α1H
Conditions: HEK cells stably expressing human α1H; mainly non-inactivated protocol; values above 10,000 nM represented as 10000
Measured IC50 accompanies every entry in the list below.
measurement type: IC50 (µM)

>>> numeric_result("O=C(N[C@H]1CC[C@](F)(S(=O)(=O)c2cccc(OC(F)(F)F)c2)CC1)c1ccc(F)c(Cl)c1")
0.99
>>> numeric_result("CC(C)(C)NC(=O)CN[C@H]1C[C@H](CS(=O)(=O)c2cccc(C(F)(F)F)c2)C1")
0.23
>>> numeric_result("CS(=O)(=O)c1cc(C(F)(F)F)cnc1C(=O)NC[C@H]1C[C@H](S(=O)(=O)c2cccc(C(F)(F)F)c2)C1")
0.21
>>> numeric_result("O=C(N[C@H]1C[C@H](CS(=O)(=O)c2cccc(C(F)(F)F)c2)C1)c1ccc(Cl)c(F)c1")
0.27
>>> numeric_result("COc1ccc(C(C)(C)NC(=O)[C@H]2C[C@H](S(=O)(=O)c3cccc(C(F)(F)F)c3)C2)cc1")
1.04
>>> numeric_result("CC1(NC(=O)c2ncc(C(F)(F)F)cc2S(C)(=O)=O)CCC(S(=O)(=O)c2cccc(C(F)(F)F)c2)CC1 (centres unmarked)")
0.86
>>> numeric_result("CC(C)(C(=O)Nc1ccc(Oc2ccc(F)c(Cl)c2)nc1)S(=O)(=O)c1cccc(C(F)(F)F)c1")
2.07
>>> numeric_result("CN(C(=O)c1ccc(F)c(C(F)(F)F)c1)[C@H]1CC[C@@](F)(S(=O)(=O)c2cc(F)cc(C(F)(F)F)c2)CC1")
2.39
